System: S. aureus ATCC 6538 P
Assay: Zone of inhibition, agar well
Conditions: antibiotic amount (1-200 mcg)
Test readout: zone of inhibition, antibiotics

CCC[C@@H]1C[C@@H](C(=O)N[C@@H]([C@H]2O[C@H](SC)[C@H](O)[C@@H](O)[C@H]2O)[C@@H](C)O)N(C)C1 :: 1Clear
CN(C)[C@@H]1C(O)=C(C(N)=O)C(=O)[C@@]2(O)C(O)=C3C(=O)c4c(O)cccc4[C@@](C)(O)[C@H]3C[C@@H]12 :: 34 mm
CC1(C)S[C@@H]2[C@H](NC(=O)[C@H](N)c3ccccc3)C(=O)N2[C@H]1C(=O)O :: Clear

* * *

System: MRSA 2
Experiment: Zone of inhibition, agar well
Details: antibiotic amount (1-200 mcg)
Test readout: zone of inhibition, antibiotics

CC1(C)S[C@@H]2[C@H](NC(=O)[C@H](N)c3ccccc3)C(=O)N2[C@H]1C(=O)O :: 18 mm
CCn1cc(C(=O)O)c(=O)c2cc(F)c(N3CCN(C)CC3)cc21 :: 13 mm

Okay, now this compound:
Query block: Tell me the measured zone of inhibition, antibiotics of "Cc1onc(-c2ccccc2Cl)c1C(=O)N[C@@H]1C(=O)N2[C@@H]1SC(C)(C)[C@@H]2C(=O)O" , please.
Result block: 13 mm

* * *

Test system: S. aureus ATCC 6538 P
Assay: Zone of inhibition, agar well
Conditions: antibiotic amount (1-200 mcg)
Test readout: zone of inhibition, antibiotics

Before answering, review these 5 worked examples.
CO/N=C(\C(=O)N[C@@H]1C(=O)N2C(C(=O)O)=C(COC(C)=O)CS[C@H]12)c1csc(N)n1 [Cefotaxime] :: 26 mm
Cc1onc(-c2ccccc2Cl)c1C(=O)N[C@@H]1C(=O)N2[C@@H]1SC(C)(C)[C@@H]2C(=O)O [Cloxacillin] :: Clear
CC1=C(C(=O)O)N2C(=O)[C@@H](NC(=O)[C@H](N)c3ccccc3)[C@H]2SC1 [Cephalexin] :: Clear
O=C(O)c1cn(C2CC2)c2cc(N3CCNCC3)c(F)cc2c1=O [Ciprofloxacin] :: 28 mm
CCn1cc(C(=O)O)c(=O)c2cc(F)c(N3CCN(C)CC3)cc21 [Peflofloxacin] :: 30 mm

Okay, now this molecule:
Query block: Tell me the measured zone of inhibition, antibiotics of CC[C@H]1OC(=O)[C@H](C)[C@@H](O[C@H]2C[C@@](C)(OC)[C@@H](O)[C@H](C)O2)[C@H](C)[C@@H](O[C@@H]2O[C@H](C)C[C@H](N(C)C)[C@H]2O)[C@](C)(O)C[C@@H](C)/C(=N\OCOCCOC)[C@H](C)[C@@H](O)[C@]1(C)O [Roxythromycin] , please.
Result block: Clear

* * *

System: MRSA 2
Test: Zone of inhibition, agar well
Settings: antibiotic amount (1-200 mcg)
Test readout: zone of inhibition, antibiotics (mm)
Dear colleague, please return just the value in mm, with no unit written.

Before answering, review these 4 worked examples.
CC[C@H]1OC(=O)[C@H](C)[C@@H](O[C@H]2C[C@@](C)(OC)[C@@H](O)[C@H](C)O2)[C@H](C)[C@@H](O[C@@H]2O[C@H](C)C[C@H](N(C)C)[C@H]2O)[C@](C)(O)C[C@@H](C)/C(=N\OCOCCOC)[C@H](C)[C@@H](O)[C@]1(C)O :: 12
CN(C)[C@@H]1C(O)=C(C(N)=O)C(=O)[C@@]2(O)C(O)=C3C(=O)c4c(O)cccc4[C@@](C)(O)[C@H]3C[C@@H]12 :: 0.7
CC1=C(C(=O)O)N2C(=O)[C@@H](NC(=O)[C@H](N)c3ccccc3)[C@H]2SC1 :: 0.8
CC1COc2c(N3CCN(C)CC3)c(F)cc3c(=O)c(C(=O)O)cn1c23 (stereo not drawn) :: 16

Okay, now this compound:
Query block: Tell me the measured zone of inhibition, antibiotics of "O=C(O)c1cn(C2CC2)c2cc(N3CCNCC3)c(F)cc2c1=O" , please.
Result block: 14
